# System: Bacillus subtilis
# assay_remarks: Antibacterial activity against Bacillus subtilis after 24 hrs by MTT assay
# Type: functional
metric_name: MIC (µg/mL)

Examples with answers:
Report MIC for CCOC(=O)/C(=C\Nc1ccc(Cl)cc1Cl)c1ccc(OCc2ccccc2)cc1 please.
25

Report MIC for CCOC(=O)/C(=C\Nc1ccc(F)cc1)c1ccc(OCc2ccccc2)cc1 please.
25

Report MIC for CCOC(=O)/C(=C/Nc1ccc(F)cc1)c1ccc(OCc2ccccc2)cc1 please.
25

Report MIC for CCOC(=O)/C(=C/Nc1ccc(C(C)C)cc1)c1ccc(OCc2ccccc2)cc1 please.
12.5

Report MIC for CCOC(=O)/C(=C\Nc1ccc(C)cc1)c1ccc(OCc2ccccc2)cc1 please.
25

(P) CCOC(=O)/C(=C/Nc1ccc(Br)cc1Br)c1ccc(OCc2ccccc2)cc1
(Q) NC[C@H]1O[C@H](O[C@H]2[C@H](O)[C@@H](O[C@H]3O[C@H](CO)[C@@H](O)[C@H](N)[C@H]3O)[C@H](N)C[C@@H]2N)[C@H](N)[C@@H](O)[C@@H]1O
(R) CCOC(=O)/C(=C\Nc1ccc(Cl)cc1)c1ccc(OCc2ccccc2)cc1
Please list these in order of increasing MIC. Thank you! Returns: the labels listed in the requested order.
Q, P, R

(I) CCOC(=O)/C(=C\Nc1ccc(Br)cc1Br)c1ccc(OCc2ccccc2)cc1
(II) CCOC(=O)/C(=C/Nc1ccc(F)cc1F)c1ccc(OCc2ccccc2)cc1
Between the entries labelled I and II , which has a larger MIC value on record? Write down the label attached to your selection.
I

###

# System: Bacillus subtilis
# assay_remarks: Antibacterial activity against Bacillus subtilis after 24 hrs by MTT assay
# Assay type: functional
metric_name: MIC (µg/mL)

Examples with answers:
Report MIC for CCOC(=O)/C(=C\Nc1ccc(C(C)C)cc1)c1ccc(OCc2ccccc2)cc1 please.
25

Report MIC for CCOC(=O)/C(=C/Nc1ccccc1)c1ccc(OCc2ccccc2)cc1 please.
25

(A) CCOC(=O)/C(=C\Nc1ccccc1)c1ccc(OCc2ccccc2)cc1
(B) CCOC(=O)/C(=C\Nc1ccc(Br)cc1)c1ccc(OCc2ccccc2)cc1
Between the entries labelled A and B , which has a larger MIC value on record? Write down the label attached to your selection.
B

###

# Tested on: Pseudomonas fluorescens
# assay_remarks: Antibacterial activity against Pseudomonas fluorescens after 24 hrs by MTT assay
# Type: functional
metric_name: MIC (µg/mL)

Examples with answers:
Report MIC for CCOC(=O)/C(=C\Nc1ccccc1)c1ccc(OCc2ccccc2)cc1 please.
25

Report MIC for CCOC(=O)/C(=C/Nc1ccc(F)cc1F)c1ccc(OCc2ccccc2)cc1 please.
25

Report MIC for CCOC(=O)/C(=C\Nc1ccc(C)cc1)c1ccc(OCc2ccccc2)cc1 please.
1.56

Report MIC for CCOC(=O)/C(=C\Nc1ccc(F)cc1F)c1ccc(OCc2ccccc2)cc1 please.
12.5

Report MIC for CCOC(=O)/C(=C\Nc1ccccc1F)c1ccc(OCc2ccccc2)cc1 please.
25

Report MIC for CCOC(=O)/C(=C/Nc1ccccc1)c1ccc(OCc2ccccc2)cc1 please.
6.25

Report MIC for NC[C@H]1O[C@H](O[C@H]2[C@H](O)[C@@H](O[C@H]3O[C@H](CO)[C@@H](O)[C@H](N)[C@H]3O)[C@H](N)C[C@@H]2N)[C@H](N)[C@@H](O)[C@@H]1O please.
3.12

Report MIC for CCOC(=O)/C(=C/Nc1ccc(Cl)cc1Cl)c1ccc(OCc2ccccc2)cc1 please.
25

(a) CCOC(=O)/C(=C/Nc1ccc(C(C)C)cc1)c1ccc(OCc2ccccc2)cc1
(b) CCOC(=O)/C(=C/Nc1ccc(F)cc1)c1ccc(OCc2ccccc2)cc1
(c) CCOC(=O)/C(=C\Nc1ccc(C(C)C)cc1)c1ccc(OCc2ccccc2)cc1
Please list these in order of increasing MIC. Thank you! Returns: the labels listed in the requested order.
c, a, b

(P) CCOC(=O)/C(=C/Nc1ccc(Cl)cc1)c1ccc(OCc2ccccc2)cc1
(Q) CCOC(=O)/C(=C\Nc1ccc(Cl)cc1)c1ccc(OCc2ccccc2)cc1
Field: lower recorded MIC (choose P or Q ) Write down the label attached to your selection.
Q

(I) CCOC(=O)/C(=C\Nc1ccc([N+](=O)[O-])cc1)c1ccc(OCc2ccccc2)cc1
(II) CCOC(=O)/C(=C\Nc1ccc(Cl)cc1Cl)c1ccc(OCc2ccccc2)cc1
Field: lower recorded MIC (choose I or II ) Write down the label attached to your selection.
I
(I: 6.25 µg/mL, II: 25 µg/mL)

(1) CCOC(=O)/C(=C\Nc1ccc(Br)cc1)c1ccc(OCc2ccccc2)cc1
(2) CCOC(=O)/C(=C/Nc1ccc(Br)cc1Br)c1ccc(OCc2ccccc2)cc1
Field: lower recorded MIC (choose 1 or 2 ) Write down the label attached to your selection.
1

(P) CCOC(=O)/C(=C\Nc1ccc(Br)cc1Br)c1ccc(OCc2ccccc2)cc1
(Q) CCOC(=O)/C(=C\Nc1ccc(F)cc1)c1ccc(OCc2ccccc2)cc1
(R) CCOC(=O)/C(=C\Nc1ccccc1Cl)c1ccc(OCc2ccccc2)cc1
Please list these in order of increasing MIC. Thank you! Returns: the labels listed in the requested order.
Q, P, R
(Q: 3.12 µg/mL, P: 12.5 µg/mL, R: 25 µg/mL)

###

# Test system: Bacillus subtilis
# assay_remarks: Antibacterial activity against Bacillus subtilis after 24 hrs by MTT assay
# Assay type: functional
metric_name: MIC (µg/mL)

Report MIC for CCOC(=O)/C(=C/Nc1ccc(Cl)cc1)c1ccc(OCc2ccccc2)cc1 please.
25

Report MIC for CCOC(=O)/C(=C/Nc1ccccc1Cl)c1ccc(OCc2ccccc2)cc1 please.
25

###

# Test system: Bacillus subtilis
# assay_remarks: Antibacterial activity against Bacillus subtilis after 24 hrs by MTT assay
# Format: functional
MIC values by entry

Examples with answers:
Report MIC for CCOC(=O)/C(=C/Nc1ccc(Br)cc1)c1ccc(OCc2ccccc2)cc1 please.
> 50 µg/mL

Report MIC for CCOC(=O)/C(=C\Nc1ccccc1F)c1ccc(OCc2ccccc2)cc1 please.
> 50 µg/mL

For the next question, use this molecule.
Report MIC for CCOC(=O)/C(=C/Nc1ccccc1F)c1ccc(OCc2ccccc2)cc1 please.
> 50 µg/mL

Data provenance is ChEMBL document CHEMBL1806364.
